- test-description: Cytotoxicity against human HFF-1 cells assessed as cell viability at 40 uM in presence of 600 nm light irradiation for 45 mins by MTT assay relative to control
- Type: toxicity, cell-based
- reported-conditions: read-out: Activity
recorded-metric: viability at 0.75 h, 40 µM

Requested field: viability at 0.75 h, 40 µM. Item: `C#CCC[n+]1c(/C=C/c2ccc(-c3ccc(N(c4ccc(OCCC[N+](C)(C)C)cc4)c4ccc(OCCC[N+](C)(C)C)cc4)cc3)s2)sc2ccccc21.[Br-].[Br-].[Br-]`
< 90%

// provenance: ChEMBL document CHEMBL6134849
